B1: TCEB3B (parent)
chain: STTALGDKQRKANESKGTRESWDS

Variants of: B1
assay-summary: protein stability index of a GFP-peptide fusion (GPS, HEK-293T) (PSI 1-6); higher = more stable;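 also: lentivirally expressed fusions sorted by FACS into six bins by GFP to DsRed ratio, PSI derived from sequencing read proportions per bin multiplied by bin number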
condition-info: c terminus: a fixed tail appended
Decision: protein stability index >= 4 yields class 1, all other cases yield class 0.

Worked set:
{"sequence-record": "STTALGDKQRKANESKGRRESWDS", "label": "class 0"}
{"sequence-record": "STTALGDWQRKANESKGTRESWDS", "label": "class 1"}
{"sequence-record": "ETTALGDKQRKANESKGTRESWDS", "label": "class 0"}
{"sequence-record": "STTALQDKQRKANESKGTRESWDS", "label": "class 0"}
{"sequence-record": "STTALGDKQRKANESKGTRESSDS", "label": "class 1"}
{"sequence-record": "STTALGDKQRKANESKGTRESWDW", "label": "class 1"}
{"sequence-record": "STTALGDKQEKANESKGTRESWDS", "label": "class 1"}
{"sequence-record": "STTALGDKQRKANESKPTRESWDS", "label": "class 1"}

Q: State whether the measured protein stability index reaches 4, counting equality as reaching it, for `STGALGDKQRKANESKGTRESWDS`
Ans: class 1

Q: State whether the measured protein stability index reaches 4, counting equality as reaching it, for `STTALGDKQRKANFSKGTRESWDS`
Ans: class 0
